pKd values by entry
- Study Target: human serum albumin (HSA) (Homo sapiens)
- Sequence (P02768 25-609): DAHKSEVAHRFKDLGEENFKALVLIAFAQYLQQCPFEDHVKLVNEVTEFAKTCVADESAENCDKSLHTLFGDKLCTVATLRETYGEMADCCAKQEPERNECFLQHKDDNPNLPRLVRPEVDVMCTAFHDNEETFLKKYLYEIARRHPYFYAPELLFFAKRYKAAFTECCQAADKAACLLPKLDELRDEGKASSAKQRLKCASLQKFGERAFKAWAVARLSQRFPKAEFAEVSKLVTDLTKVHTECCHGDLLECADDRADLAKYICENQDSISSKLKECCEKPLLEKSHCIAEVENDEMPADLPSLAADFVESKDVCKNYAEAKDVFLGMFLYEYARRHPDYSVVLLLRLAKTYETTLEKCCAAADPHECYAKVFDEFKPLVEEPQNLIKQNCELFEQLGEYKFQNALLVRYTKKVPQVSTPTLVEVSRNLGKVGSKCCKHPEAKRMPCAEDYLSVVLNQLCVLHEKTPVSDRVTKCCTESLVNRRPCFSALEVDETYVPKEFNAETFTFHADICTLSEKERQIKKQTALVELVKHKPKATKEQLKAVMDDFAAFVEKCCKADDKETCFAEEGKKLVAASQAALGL
- Procedure Details: biochemical
- Assay type: binding
- Test Parameters: association constant of ochratoxin–HSA complex (approximate, summary)
pKd: −log10 of the molar value.

CCOC(=O)[C@H](Cc1ccccc1)NC(=O)c1cc(Cl)c2c(c1O)C(=O)O[C@H](C)C2: ~7.00

Let's switch to this compound now.
# pKd lookup, item C[C@@H]1Cc2ccc(C(=O)N[C@@H](Cc3ccccc3)C(=O)O)c(O)c2C(=O)O1
~6.00

* * *

- Study Target: Sudlow’s site I of human serum albumin (HSA) (Homo sapiens, UniProt P02768)
- Sequence (P02768 25-609): as above
- Type: binding
- Test Parameters: pH 7.4
Readout Kind: warfarin concentration in the filtrate (displacement from site I)

CC(=O)OC[C@]12C[C@H](OC(=O)CC(C)C)C(C)=C[C@H]1O[C@@H]1[C@H](O)[C@@H](OC(C)=O)[C@@]2(C)[C@]12CO2: did not alter
CC1=C[C@H]2O[C@@H]3[C@H](O)C[C@](C)([C@@]2(CO)[C@H](O)C1=O)[C@]31CO1: did not alter
O=C1C=C2C(=CCOC2O)O1 (centres unmarked): did not alter
C[C@@H]1Cc2ccc(C(=O)N[C@@H](Cc3ccccc3)C(=O)O)c(O)c2C(=O)O1: significantly increased

Here's the next entry for you.
I have this molecule here, CCOC(=O)[C@H](Cc1ccccc1)NC(=O)c1cc(Cl)c2c(c1O)C(=O)O[C@H](C)C2 , and I need its recorded warfarin concentration in the filtrate (displacement from site I).
significantly increased

* * *

HepG2 cells: reported effect of 10% FBS on the mycotoxin-induced viability loss / toxic effect for various compounds.
Readout Kind: effect of 10% FBS on the mycotoxin-induced viability loss / toxic effect

CC1=C[C@H]2O[C@@H]3[C@H](O)C[C@](C)([C@@]2(CO)[C@H](O)C1=O)[C@]31CO1 [DON, Deoxynivalenol]: did not affect
CC(=O)OC[C@]12C[C@H](OC(=O)CC(C)C)C(C)=C[C@H]1O[C@@H]1[C@H](O)[C@@H](OC(C)=O)[C@@]2(C)[C@]12CO2 [T2, T-2 toxin]: did not affect
O=C1C=C2C(=CCOC2O)O1 (centres unmarked) [PAT, Patulin]: did not affect
